Just for reference, patent US20260109763A1 is where these values come from.

Target: human PILRA G78 on cells (human, UniProt Q9UKJ1 20-303)
Sequence (Q9UKJ1 20-303 R78G limits assumed): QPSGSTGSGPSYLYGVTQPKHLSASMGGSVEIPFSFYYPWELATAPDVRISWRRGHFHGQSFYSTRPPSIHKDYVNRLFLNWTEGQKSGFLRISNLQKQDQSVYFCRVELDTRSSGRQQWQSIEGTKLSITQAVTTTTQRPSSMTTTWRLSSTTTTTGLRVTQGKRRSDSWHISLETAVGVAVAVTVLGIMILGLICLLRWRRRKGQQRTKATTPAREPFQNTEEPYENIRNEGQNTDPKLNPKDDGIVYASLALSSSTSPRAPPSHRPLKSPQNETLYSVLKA
Assay: cell-based or functional assay
Value Kind: pSTAT3 Y705 induction, EC50 (nM)

binder="Anti-PILRA antibody clone 10 (antibody, V domains shown, also called Ab; Clone 10) VH: EVQLVQSGAEIRKPGESLKISCKGSGYSFTTYWIAWVRQMPGKGLEWMGIIYPGDSDTRYSPSFQGQVTISADKSITTAYLQWSSLKASDTGIYYCARTYYYFSGSHWDAFDIWGQGTMVTVSS VL: DIQMTQSPSSVSAYVGDRVTITCRASQDIRDCLAWYQQKPGKAPKFLIYAASSFQSGVPSGFSGSGSGTDFTLTVTSLQPEDSATYYCQQTHSFPYTFGQGTKLEIK" value_kind="pSTAT3 Y705 induction, EC50 (nM)" data_value="5.69 nM"
